- assayProcedure: Plasma clearance in WH rat at 1 mg/kg, iv
- Assay type: ADME, organism-based
measureName: clearance (mL/min/kg)
Please give a number only; it is taken to be in mL/min/kg.

Reported clearance for COc1ncc(-c2ccc(C(=O)O)cc2C)cc1-c1ccc(C(F)(F)F)cc1[C@@H]1CC[C@H]2[C@@H](c3cc(C(F)(F)F)cc(C(F)(F)F)c3)OC(=O)N12 : what is it?
3.1

====

- assayProcedure: Volume of distribution at steady state in CD1 mouse at 1 mg/kg, iv and 2 mg/kg, po
- Type: ADME, organism-based
- conditionSet: in vivo, read-out: Vdss
Property: Vd; scope: individual molecules
Please give a number only; it is taken to be in L/kg.

Example molecules with recorded Vd:
COc1ncc(-c2ccc(C(=O)O)cc2C)cc1-c1ccc(C(F)(F)F)cc1[C@@H]1CC[C@H]2[C@@H](c3cc(C(F)(F)F)cc(C(F)(F)F)c3)OC(=O)N12	0.95
COc1ccc(-c2ccc(C(=O)O)cc2C)cc1-c1cnc(N(C)C)nc1[C@@H]1CC[C@H]2[C@@H](c3cc(C(F)(F)F)cc(C(F)(F)F)c3)OC(=O)N12	5.6

We next turn to a different molecule, shown below.
Reported Vd for COc1cc(F)c(-c2ccc(C(=O)O)cc2C)cc1-c1ccc(C(F)(F)F)cc1[C@@H]1CC[C@H]2[C@@H](c3cc(C(F)(F)F)cc(C(F)(F)F)c3)OC(=O)N12 : what is it?
2.3

====

- assayProcedure: Half life in C57BL/6 mouse at 1 mg/kg, iv
- Format: ADME, organism-based
- conditionSet: in vivo
measureName: half-life (h)
Please give a number only; it is taken to be in h.

Example molecules with recorded half-life:
COc1ccc(C(C)C)cc1-c1ccc(C(F)(F)F)cc1CN1C(=O)O[C@H](c2cc(C(F)(F)F)cc(C(F)(F)F)c2)[C@@H]1C	4.9
COc1ccc(-c2ccc(C(=O)O)cc2C)cc1-c1ccc(C(F)(F)F)cc1CN1C(=O)O[C@H](c2cc(C(F)(F)F)cc(C(F)(F)F)c2)[C@@H]1C	2.5

We next turn to a different molecule, shown below.
Reported half-life for Cc1cc(C(=O)O)ccc1-c1ccc(Cl)c(-c2ccc(C(F)(F)F)cc2CN2C(=O)O[C@H](c3cc(C(F)(F)F)cc(C(F)(F)F)c3)[C@@H]2C)c1 : what is it?
62

====

- assayProcedure: Dose normalized AUC in C57BL/6 mouse at 2 mg/kg, po
- Assay type: ADME, organism-based
- conditionSet: in vivo
Property: AUC/dose; scope: individual compounds
Please give a number only; it is taken to be in µM·kg·h/mg.

COc1cc(F)c(C(C)C)cc1-c1ccc(C(F)(F)F)cc1CN1C(=O)O[C@H](c2cc(C(F)(F)F)cc(C(F)(F)F)c2)[C@@H]1C	0.36
Cc1cc(C(=O)O)ccc1-c1ccc(Cl)c(-c2ccc(C(F)(F)F)cc2CN2C(=O)O[C@H](c3cc(C(F)(F)F)cc(C(F)(F)F)c3)[C@@H]2C)c1	1.8
COc1ccc(-c2ccc(C(=O)O)cc2C)cc1-c1ccc(C(F)(F)F)cc1CN1C(=O)O[C@H](c2cc(C(F)(F)F)cc(C(F)(F)F)c2)[C@@H]1C	0.86

We next turn to a different compound, shown below.
Reported AUC/dose for COc1ccc(C(C)C)cc1-c1ccc(C(F)(F)F)cc1CN1C(=O)O[C@H](c2cc(C(F)(F)F)cc(C(F)(F)F)c2)[C@@H]1C : what is it?
0.29
